The reported numbers originate from PubChem BioAssay.

# system_under_test: L-lactate dehydrogenase (Plasmodium falciparum (isolate CDC / Honduras)) (UniProt Q27743)
# Sequence (Q27743 whole entry, looked up): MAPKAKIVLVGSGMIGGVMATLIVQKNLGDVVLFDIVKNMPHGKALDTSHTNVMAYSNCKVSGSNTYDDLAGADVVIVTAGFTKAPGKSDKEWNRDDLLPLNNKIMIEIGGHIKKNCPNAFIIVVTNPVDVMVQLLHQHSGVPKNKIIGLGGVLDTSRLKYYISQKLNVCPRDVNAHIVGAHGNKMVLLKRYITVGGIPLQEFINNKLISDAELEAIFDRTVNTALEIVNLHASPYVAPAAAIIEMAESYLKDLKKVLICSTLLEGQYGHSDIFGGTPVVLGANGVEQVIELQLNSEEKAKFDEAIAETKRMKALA
# test_name: PfLDH activity inhibition – cell lysate, 3D7 strain, counter-screen for P. falciparum growth inhibition project (AID 2304);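 also: 0% = vehicle and 100% = reference inhibitor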
# condition: P. falciparum 3D7 crude extract, LDH APAD/NBT absorbance; at 2 µM; active compounds read high
Listed compounds paired with reported inhibition
Could you give me the number in %? Just the number is fine.

Solved cases (3 shown):
compound="Cc1[nH]c2ccccc2c1C1=CCN(CCCCC2(C)C(=O)Nc3ccccc32)CC1 (configuration not stated)" measured_value=-4
compound=COc1ccc2[nH]cc(C3=CCN(Cc4ccccc4)CC3)c2c1 measured_value=-5
compound=CC(C)CNCc1cccc(-c2ccc(CN(C(=O)c3cccs3)C3CCN(Cc4ccccc4)CC3)cc2)c1 measured_value=3

Missing value: inhibition, L-lactate dehydrogenase (Plasmodium falciparum (isolate CDC / Honduras)) (UniProt Q27743), entry "COCC(=O)N(Cc1cccc(-c2ccc(CNCCc3ccccc3)cc2)c1)C1CCN(Cc2ccccc2)CC1" . Fill in?
4

Try COC(=O)c1ccc(CC(C)NCC(O)c2cccc(C(F)(F)F)c2)cc1C (configuration not stated) next.
2

Entry O=C(/C=C/c1cc(C(F)(F)F)ccc1F)NC1CCC(CN2CCC(c3c[nH]c4ccccc34)CC2)CC1 (configuration not stated) please
-5

Next compound up: O=C(NC1CCC(CN2CCC(c3c[nH]c4ccccc34)CC2)CC1)c1cc(-c2ccc(F)cc2F)ccc1O (configuration not stated)
0

Next compound up: Oc1ccc(Cl)cc1CN1CCC(CCOC(c2ccccc2)c2ccc(Cl)cc2)CC1 (configuration not stated)
2

Another compound: CCN(CC)CCN1C(=O)C(O)(c2ccccc2Cl)c2c1cc(C(N)=O)cc2C(F)(F)F (configuration not stated)
-4

What about "O=C(c1cc(C(F)(F)F)cc(C(F)(F)F)c1)N1CC[C@H](CCN2CCC3(CC2)C(=O)NCN3c2ccccc2)C[C@H]1Cc1ccc(Cl)c(Cl)c1" ?
-4

Again, but for "COc1ccc(C(=O)[C@H]2C[C@@H]2CN2CC=C(c3c(C)[nH]c4ccccc34)CC2)cc1"
-6

And then "O=C(NCCC1CCN(CCc2c[nH]c3ccccc23)CC1)Nc1ccc(Cl)c(Cl)c1" , what is it?
-2

// query: "O=C(c1cc(C(=O)NCc2ccc(Cl)cc2)c(=O)n(Cc2ccc(Cl)cc2)c1)c1cc(Cl)ccc1O"
-1

Further, for CC(Cc1ccc(OCc2ccccc2)cc1)NCC(O)c1cccc(Cl)c1 (configuration not stated) ?
5

Same question for "COc1ccc(CN2CCN(CCOC(c3ccc(F)cc3)c3ccc(F)cc3)CC2)c(O)c1" please.
-6

Also "Cc1nc(C)c(-c2ccc(Oc3ccc(OC(F)(F)F)cc3)cc2)c(OC(=O)N(CCNC(C)C)C(C)C)c1Br" ?
-2

Then "CCN1CCC(N2CCC(n3c(C)nc4cc(C(F)(F)F)ccc43)CC2)CC1" ?
1

Also "Cc1cc2cc(CNCCc3ccccc3Br)ccc2nc1N" , if possible.
-1

Okay, and "COc1ccc(C[C@@H](C)NC[C@H](O)c2cccc(Cl)c2)cc1F" ?
-2

And then Cc1[nH]c2ccccc2c1C1=CCN(CCCCC2(C)C(=O)Nc3cccc(F)c32)CC1 (configuration not stated) , what is it?
-4

Next entry: "CCCCCCCc1cc(O)c2c(c1)OC(C)(C)c1ccncc1-2"
0

What about O=C(/C=C/c1ccc(Cl)c(Cl)c1)N(Cc1ccccc1)C1CCC(CN2CCC(c3c[nH]c4ccccc34)CC2)CC1 (configuration not stated) ?
-6
